Cited source: patent US20250340662A1

Listed binders paired with reported kon
Molecular target: T1, Human v6-peptide (human, N-terminal biotin)
T1 construct: Bachem #4108947, 43 amino acids, synthetic; also called Hm v6-peptide; hm v6-peptide
T1 peptide: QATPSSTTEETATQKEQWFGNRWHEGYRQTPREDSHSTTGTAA
Experiment: SPR SCK, antibody immobilised, peptide injected
Quick reminder: number only, in M⁻¹ s⁻¹, skip the unit.

AL-MN114-465 IgG1 LALA IAHA (antibody, V domains shown, Human IgG1 LALA IAHA, kappa) VH: EVQLLESGGGLVQPGGSLRLSCAASGFSFGSYAMSWVRQAPGKGLEWVSAISAGGSSTFYADSVKGRFTISRDNSKNTLYLQMNSLRAEDTAVYYCARHYYSDSDYRSSAAMDYWGQGTLVTVSS VL: DIQMTQSPSSLSASVGDRVTITCRASQSISSYLNWYQQKPGKAPKLLIYTASSLQSGVPSRFSGSGSGTDFTLTISSLQPEDFATYYCQQDLYLLTFGQGTKLEIK; 680000

We next turn to a different binder, shown below.
Query string: Fill in: kon of AL-MN114-132 IgG1 LALA (antibody, V domains shown, item 20 iii) gives heavy 77 / light 96 without naming the format) VH: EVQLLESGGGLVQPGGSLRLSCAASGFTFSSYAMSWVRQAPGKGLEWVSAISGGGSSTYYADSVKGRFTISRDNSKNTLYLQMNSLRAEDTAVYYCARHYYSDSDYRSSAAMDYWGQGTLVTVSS VL: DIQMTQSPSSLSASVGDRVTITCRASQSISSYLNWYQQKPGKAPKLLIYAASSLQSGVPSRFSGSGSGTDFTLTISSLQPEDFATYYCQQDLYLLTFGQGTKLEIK is ___
Result string: 1.1e+06
